- Target: T1, PUF4 RNA-binding domain (Saccharomyces cerevisiae, UniProt P25339 537-888)
- T1 sequence: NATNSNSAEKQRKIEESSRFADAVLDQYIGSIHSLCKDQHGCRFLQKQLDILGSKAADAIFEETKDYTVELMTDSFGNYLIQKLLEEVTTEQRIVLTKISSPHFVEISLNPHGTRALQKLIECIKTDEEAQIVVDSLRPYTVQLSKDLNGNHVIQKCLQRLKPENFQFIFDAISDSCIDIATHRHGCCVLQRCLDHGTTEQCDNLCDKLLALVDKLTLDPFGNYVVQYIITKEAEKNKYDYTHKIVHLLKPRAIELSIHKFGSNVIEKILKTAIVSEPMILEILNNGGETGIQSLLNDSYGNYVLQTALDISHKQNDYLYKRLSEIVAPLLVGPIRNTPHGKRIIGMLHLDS
- Assay explanation: Mg; RNA-MaP; 20 mM Na-HEPES pH 7.4, 30 mM KOAc, 0.75 mM MgCl2, 0.1% Tween-20, 5% glycerol, 0.1 mg/mL BSA, 2 mM DTT; 25 C; 0.0125-409.6 nM protein
- Condition summary: tags: N-His6-TEV cleaved; C-SNAP kept, Cy3B-labelled; label: tethered on chip by stalled RNA polymerase
Result type: Kd (nM)
Please respond with the number in nM and leave the unit unwritten.

// UCUCUUUGUACGUCCCUCUCUU (ssRNA) [Ic_S1_P5E.1_K5.1_C5.1_H5.1_A5.1_[T5C]_[T6G]_[A7T]_F5.1_[T8C]_[T9C]_[A10C]_T5.1] : Kd value = 394

Measured Kd, Ie_S2_P4E.1_K4.1_C4.1_H4.1_A4.1_[+7CTCT]_F4.1_T4.1 (ssRNA) RNA: UUUGAUUAAUAUGAUAUCGUUCUUUCUUGUAUAUCUCUUAUUCUUUCUCGAUAUCAUAUUAAUCUUU : 12.8

# Kd (binder: Ib_S4_P5E.1_K5.1_C5.1_H5.1_[G2A]_A5.1_[T5G]_F5.1_T5.1 (ssRNA) RNA: UUUGACAACUGAUCGUUCUUUCUUAUAGUAUUAUUCUUUCUCGAUCAGUUGUCUUU ) is 1940

For reference, reported Kd for Id_ii_S4_P4E.3_K4.2_C4.2_H4.2_A4.1_F4.1_T4.2_[G10T]_[T11C] (ssRNA) RNA: UUUGACAACUGAUCGUUCUUUCUCUUAUAUAUUAUCUUCUUUCUCGAUCAGUUGUCUUU stands at 6.46

Memo: UCUCUUGUUAUAUUAUUACCUCUCUU (ssRNA) [Id_ii_S1_P5E.3_K5.2_C5.2_[C-2G]_H5.2_A5.1_F5.1_T5.2_[T11C]_[A12C]] , reported Kd: 9

Source: paper PMC9352680
